# Test system: SK-MEL-28
# EXPERIMENTAL PROTOCOL: NCI tumour cell line growth inhibition, 48 h
The source made the active and inactive calls. Rule as the data show it: active = GI50 up to about 1.1 µM and inactive = higher.
Outcomes: true (1) for active, false (0) for inactive

{"MOLECULE": "Cn1nc2ccc(Nc3cc(=O)[nH]c4ccc5nn(C)nc5c34)cc2n1", "ASSIGNED CATEGORY": "false (0)"}
{"MOLECULE": "CN1CCN(/C(N)=C(\\C#N)C(=O)Nc2ccc(Cl)cc2)CC1", "ASSIGNED CATEGORY": "false (0)"}
{"MOLECULE": "C(/COc1cccnc1)=N\\NC1=NCCN1", "ASSIGNED CATEGORY": "false (0)"}
{"MOLECULE": "ClC1=C(Cl)C2OC3C=CCC3OC2C(Cl)=C1Cl (stereo not drawn)", "ASSIGNED CATEGORY": "false (0)"}
{"MOLECULE": "O=[N+]([O-])c1cccc(C(O)/C(=N/Nc2ccccc2)C2Nc3ccc([N+](=O)[O-])cc3N=C2O)c1 (stereo not drawn)", "ASSIGNED CATEGORY": "false (0)"}
{"MOLECULE": "Nc1c(S(=O)(=O)O)cc(S(=O)(=O)O)c2ccc(/N=N/c3ccc(/C=C/c4ccc(/N=N/c5ccc6c(S(=O)(=O)O)cc(S(=O)(=O)O)c(N)c6c5O)cc4S(=O)(=O)O)c(S(=O)(=O)O)c3)c(O)c12", "ASSIGNED CATEGORY": "false (0)"}
{"MOLECULE": "CC(=O)O[C@H]1C(=O)[C@@]2(C)[C@H]([C@H](OC(=O)c3ccccc3)[C@]3(O)C[C@H](OC(=O)[C@H](O)[C@@H](NC(=O)C(C)(C)C)c4ccccc4)C(C)=C1C3(C)C)[C@]1(OC(C)=O)CO[C@@H]1C[C@@H]2O", "ASSIGNED CATEGORY": "true (1)"}
{"MOLECULE": "COC(=O)C(C(=O)C(=O)Nc1ccc([N+](=O)[O-])cc1)c1nc2cc(C)c(C)cc2nc1O (stereo not drawn)", "ASSIGNED CATEGORY": "false (0)"}
{"MOLECULE": "O[C@H]1[C@H](O)[C@@H](O)[C@H](O)[C@@H](O)[C@H]1O [INOSITOL]", "ASSIGNED CATEGORY": "false (0)"}
{"MOLECULE": "CC12CCC(=O)N1c1cnccc1N2 (stereo not drawn)", "ASSIGNED CATEGORY": "false (0)"}
{"MOLECULE": "COc1cccc(NC(=O)CC(=O)NN)c1", "ASSIGNED CATEGORY": "false (0)"}
{"MOLECULE": "N=C(N)N/N=C/c1c(-c2ccc(N)cc2)nc2sccn12", "ASSIGNED CATEGORY": "false (0)"}
{"MOLECULE": "CC(C)CC1C(=O)NCCC(NC(=O)C(Cc2ccc(OC(C)(C)C)cc2)NC(=O)OC(C)(C)C)C(=O)NC(Cc2ccccc2)C(=O)NC(Cc2ccccc2)NC1=O (stereo not drawn)", "ASSIGNED CATEGORY": "false (0)"}
{"MOLECULE": "NC(=O)NC(=O)CCC(NS(=O)(=O)c1ccccc1)C(=O)NC(N)=O (stereo not drawn)", "ASSIGNED CATEGORY": "false (0)"}
{"MOLECULE": "C=CCN(C)CN(C)c1nc(N(C)C)nc(N(C)C)n1", "ASSIGNED CATEGORY": "false (0)"}
{"MOLECULE": "CCOC(=O)CCc1c(C)c2c(O)cc(O)cc2oc1=O", "ASSIGNED CATEGORY": "false (0)"}
{"MOLECULE": "O=C(CN1CCN(C(=O)OCc2ccccc2)CCN(CC(=O)N2CCCCC2)CCN(C(=O)OCc2ccccc2)CC1)N1CCCCC1", "ASSIGNED CATEGORY": "false (0)"}
{"MOLECULE": "COc1ccc(Nc2nc(N)c(C(=O)c3ccccc3)s2)cc1", "ASSIGNED CATEGORY": "false (0)"}
